From: patent US6362369B1

System: rice leafroller (Cnaphalocrocis medinalis)
ASSAY_DETAILS: Insecticidal effect on rice leafroller (Test Example 3)
Format: in vivo
COND: 500 ppm; rice lamina immersed; third-instar larvae of rice leafroller; four days after inoculation; 25° C., humidity 70%
READOUT: Insecticidal effect, Test Example 3

Prompt: Please report the recorded Insecticidal effect, Test Example 3 for Cc1cc(Cl)ccc1NC(=O)c1c(Cl)ccc(Cl)c1C(=O)NC(C)C .
Completion: D (79-50)

Prompt: Ok, now CC(C)NC(=O)c1cc(Cl)ccc1C(=O)Nc1cccc(C(F)(F)F)c1
Completion: D (79-50)

----------
System: rice leafroller (Cnaphalocrocis medinalis)
ASSAY_DETAILS: Insecticidal effect on rice leafroller (Test Example 3)
Format: in vivo
COND: 500 ppm, rice lamina dip, third-instar larvae, four days after inoculation, 25° C., humidity 70%
READOUT: Insecticidal effect on rice leafroller (Test Example 3), judged grade

Example results:
Prompt: Please report the recorded Insecticidal effect on rice leafroller (Test Example 3), judged grade for Cc1cc(SC(C)C)ccc1NC(=O)c1cccc(F)c1C(=O)NC(C)C [compound 518] .
Completion: B (99-90)

Prompt: Ok, now Cc1cc(Oc2cccc(C(F)(F)F)c2)ccc1NC(=O)c1cccc([N+](=O)[O-])c1C(=O)NC(C)C [compound 724]
Completion: B (99-90)

Prompt: Ok, now Cc1cc(C(F)(F)C(F)(F)F)ccc1NC(=O)c1cccc(F)c1C(=O)NC(C)C [compound 495]
Completion: A (100)

Prompt: Ok, now CC(C)NC(=O)c1cccc(I)c1C(=O)Nc1ccc(OC(F)(F)F)cc1Cl [compound 467]
Completion: A (100)

Next:
Prompt: Please report the recorded Insecticidal effect on rice leafroller (Test Example 3), judged grade for Cc1ccc(Cl)cc1NC(=O)c1c(F)cccc1C(=O)NC(C)C [compound 546] .
Completion: A (100)

Prompt: Ok, now Cc1cc(Cl)ccc1NC(=O)c1cccc(Cl)c1C(=O)NC(C)(C)C [compound 937]
Completion: A (100)

Prompt: Ok, now Cc1cc(C(F)(F)F)ccc1NC(=O)c1cccc([N+](=O)[O-])c1C(=O)NC(C)C [compound 682]
Completion: A (100)

----------
Tested on: rice leafroller (Cnaphalocrocis medinalis)
ASSAY_DETAILS: Insecticidal effect on rice leafroller (Test Example 3)
Type: in vivo
COND: 500 ppm, rice lamina dip, third-instar larvae, four days after inoculation, 25° C., humidity 70%
READOUT: Insecticidal effect on rice leafroller (Test Example 3), judged grade

Prompt: Please report the recorded Insecticidal effect on rice leafroller (Test Example 3), judged grade for Cc1cc(Cl)ccc1NC(=O)c1cccc(OC(F)F)c1C(=O)NC(C)C .
Completion: A (100)

Prompt: Ok, now Cc1cc(OC(F)(F)C(F)(F)Br)ccc1NC(=O)c1cccc([N+](=O)[O-])c1C(=O)NC(C)C
Completion: A (100)

Prompt: Ok, now Cc1cc(SC(F)(F)C(F)(F)F)ccc1NC(=O)c1cccc(F)c1C(=O)NC(C)C
Completion: A (100)

Prompt: Ok, now CC(C)NC(=O)c1c(C(=O)Nc2ccc(SC(F)F)cc2)cccc1[N+](=O)[O-]
Completion: D (79-50)

Prompt: Ok, now Cc1cc(SC(F)(F)C(F)(F)F)ccc1NC(=O)c1cccc(Cl)c1C(=O)NC(C)C
Completion: A (100)

Prompt: Ok, now Cc1cc(OC(F)(F)C(F)F)c(Cl)cc1NC(=O)c1cccc([N+](=O)[O-])c1C(=O)NC(C)C
Completion: A (100)

Next:
Prompt: Please report the recorded Insecticidal effect on rice leafroller (Test Example 3), judged grade for Cc1cc(Oc2ncc(C(F)(F)F)cc2Cl)ccc1NC(=O)c1c(F)cccc1C(=O)NC(C)C .
Completion: A (100)

Prompt: Ok, now Cc1c(NC(=O)c2cccc([N+](=O)[O-])c2C(=O)NC(C)C)cccc1OC(F)(F)C(F)Cl (centres unmarked)
Completion: D (79-50)

Prompt: Ok, now Cc1cc(Cl)ccc1NC(=O)c1cccc(C(F)(F)F)c1C(=O)NC(C)C
Completion: A (100)

Prompt: Ok, now Cc1cc(C(F)(F)C(F)(F)F)ccc1NC(=O)c1ccccc1C(=O)NC(C)(C)C
Completion: A (100)

----------
Test system: rice leafroller (Cnaphalocrocis medinalis)
ASSAY_DETAILS: Insecticidal effect on rice leafroller (Test Example 3)
Assay type: in vivo
COND: 500 ppm; rice lamina immersed; third-instar larvae of rice leafroller; four days after inoculation; 25° C., humidity 70%
READOUT: Insecticidal effect, Test Example 3

Example results:
Prompt: Please report the recorded Insecticidal effect, Test Example 3 for CC(C)NC(=O)c1cccc(Br)c1C(=O)Nc1ccc(C(F)(F)F)cc1 .
Completion: D (79-50)

Prompt: Ok, now Cc1cc(Cl)ccc1NC(=O)c1c(Br)ccc(Br)c1C(=O)NC(C)C
Completion: A (100)

Prompt: Ok, now CC(C)NC(=O)c1c(I)cccc1C(=O)Nc1ccc(OC(F)F)c(F)c1
Completion: A (100)

Prompt: Ok, now Cc1cc(C(F)(F)C(F)(F)F)ccc1NC(=O)c1cccc(Br)c1C(=O)NC(C)C
Completion: A (100)

Prompt: Ok, now CC(C)NC(=O)c1c(Cl)cccc1C(=O)Nc1ccc2oc(C(F)(F)F)nc2c1
Completion: C (89-80)

Next:
Prompt: Please report the recorded Insecticidal effect, Test Example 3 for Cc1c(Br)ccc(NC(=O)c2cccc(Br)c2C(=O)NC(C)C)c1C .
Completion: D (79-50)

Prompt: Ok, now COc1ccc(NC(=O)c2c(Br)cccc2C(=O)NC(C)C)c(C)c1
Completion: B (99-90)

Prompt: Ok, now Cc1ccc(Cl)cc1NC(=O)c1ccccc1C(=O)NC(C)C
Completion: A (100)

Prompt: Ok, now CC(C)NC(=O)c1c(Cl)cccc1C(=O)Nc1ccc(Cl)cc1Cl
Completion: A (100)

Prompt: Ok, now CCN(CC)C(=O)c1c(C(=O)Nc2cc(Cl)ccc2C)cccc1[N+](=O)[O-]
Completion: D (79-50)

Prompt: Ok, now CC(C)NC(=O)c1cccc(Cl)c1C(=O)Nc1ccc(C(F)(F)F)cc1Cl
Completion: A (100)

Prompt: Ok, now Cc1cc(OC(F)(F)C(F)(Br)C(F)(F)F)ccc1NC(=O)c1ccccc1C(=O)NC(C)C (stereo not shown)
Completion: B (99-90)

Prompt: Ok, now Cc1cc(Oc2ncc(C(F)(F)F)cc2Cl)ccc1NC(=O)c1c(Cl)cccc1C(=O)NC(C)C
Completion: D (79-50)

Prompt: Ok, now CC(C)NC(=O)c1cccc(Cl)c1C(=O)Nc1ccc(F)cc1F
Completion: D (79-50)

Prompt: Ok, now Cc1cc(OC(F)(F)C(F)(F)Br)ccc1NC(=O)c1cccc(Cl)c1C(=O)NC(C)C
Completion: A (100)

Prompt: Ok, now Cc1ccc(NC(=O)c2cccc(I)c2C(=O)NC(C)C)c(C)c1Cl
Completion: D (79-50)

----------
Test system: rice leafroller (Cnaphalocrocis medinalis)
ASSAY_DETAILS: Insecticidal effect on rice leafroller (Test Example 3)
Assay type: in vivo
COND: 500 ppm, rice lamina dip, third-instar larvae, four days after inoculation, 25° C., humidity 70%
READOUT: Insecticidal effect on rice leafroller (Test Example 3), judged grade

Example results:
Prompt: Please report the recorded Insecticidal effect on rice leafroller (Test Example 3), judged grade for CC(C)NC(=O)c1c(C(=O)Nc2ccc(C(C)C)cc2)cccc1[N+](=O)[O-] .
Completion: D (79-50)

Prompt: Ok, now Cc1cc(C(F)(F)C(F)(F)C(F)(F)C(F)(F)F)ccc1NC(=O)c1cccc(F)c1C(=O)NC(C)C
Completion: A (100)

Prompt: Ok, now CC(C)NC(=O)c1c(F)cccc1C(=O)Nc1ccc(OC(F)F)cc1C(F)(F)F
Completion: A (100)

Prompt: Ok, now Cc1ccc(F)cc1NC(=O)c1c(F)cccc1C(=O)NC(C)C
Completion: D (79-50)

Prompt: Ok, now Cc1cc(N(C)C)ccc1NC(=O)c1cccc([N+](=O)[O-])c1C(=O)NC(C)C
Completion: D (79-50)

Prompt: Ok, now CC(C)NC(=O)c1c(C(=O)Nc2cc(Cl)ccc2Cl)cccc1[N+](=O)[O-]
Completion: D (79-50)

Next:
Prompt: Please report the recorded Insecticidal effect on rice leafroller (Test Example 3), judged grade for Cc1cc(I)ccc1NC(=O)c1cccc([N+](=O)[O-])c1C(=O)NC(C)C .
Completion: D (79-50)

Prompt: Ok, now CC(C)NC(=O)c1c(C(=O)Nc2ccc(C(F)(F)F)cc2Cl)cccc1[N+](=O)[O-]
Completion: A (100)

----------
Tested on: rice leafroller (Cnaphalocrocis medinalis)
ASSAY_DETAILS: Insecticidal effect on rice leafroller (Test Example 3)
Assay type: in vivo
COND: 500 ppm, rice lamina dip, third-instar larvae, four days after inoculation, 25° C., humidity 70%
READOUT: Insecticidal effect on rice leafroller (Test Example 3), judged grade

Example results:
Prompt: Please report the recorded Insecticidal effect on rice leafroller (Test Example 3), judged grade for Cc1ccc(C)c(NC(=O)c2cccc([N+](=O)[O-])c2C(=O)NC(C)C)c1 .
Completion: C (89-80)

Prompt: Ok, now Cc1c(Cl)cccc1NC(=O)c1cccc(F)c1C(=O)NC(C)C
Completion: A (100)

Prompt: Ok, now Cc1cc(OC(F)F)ccc1NC(=O)c1cccc([S+]([O-])CC(F)(F)F)c1C(=O)NC(C)C (centres unmarked)
Completion: A (100)

Prompt: Ok, now CC(C)NC(=O)c1ccccc1C(=O)Nc1ccc(C(F)(F)C(F)(F)F)cc1
Completion: A (100)

Prompt: Ok, now Cc1cc(OC(F)F)ccc1NC(=O)c1cccc([N+](=O)[O-])c1C(=O)NC1CCCC1
Completion: D (79-50)

Next:
Prompt: Please report the recorded Insecticidal effect on rice leafroller (Test Example 3), judged grade for CCC(C)NC(=O)c1c(C(=O)Nc2ccc(OC(F)F)cc2C)cccc1[N+](=O)[O-] (centres unmarked) .
Completion: C (89-80)

Prompt: Ok, now COc1cccc(C(=O)Nc2ccc(Br)cc2C)c1C(=O)NC(C)C
Completion: A (100)

Prompt: Ok, now CC(C)NC(=O)c1c(F)cccc1C(=O)Nc1ccc(C(F)(F)C(F)(F)F)cc1
Completion: A (100)

Prompt: Ok, now Cc1ccc(Cl)cc1NC(=O)c1cccc([N+](=O)[O-])c1C(=O)NC(C)(C)C
Completion: D (79-50)

Prompt: Ok, now Cc1cc(OC(F)F)ccc1NC(=O)c1cc(F)ccc1C(=O)NC(C)C
Completion: A (100)

Prompt: Ok, now CC(C)NC(=O)c1cccc(Cl)c1C(=O)Nc1ccc(C(F)(F)C(F)(F)F)cc1
Completion: A (100)

Prompt: Ok, now CC(C)NC(=O)c1cccc(I)c1C(=O)Nc1ccc(OC(F)F)c(F)c1
Completion: A (100)

Prompt: Ok, now CC(C)NC(=O)c1c(F)cccc1C(=O)Nc1ccc(SC(F)F)cc1
Completion: C (89-80)

Prompt: Ok, now Cc1cc(OC(F)(F)C(F)C(F)(F)F)ccc1NC(=O)c1cccc(F)c1C(=O)NC(C)C (centres unmarked)
Completion: A (100)

Prompt: Ok, now Cc1cc(OC(F)F)ccc1NC(=O)c1cccc(SCC(F)(F)F)c1C(=O)NC(C)C
Completion: C (89-80)

Prompt: Ok, now Cc1cc(OC(F)F)ccc1NC(=O)c1c(F)ccc(F)c1C(=O)NC(C)C
Completion: A (100)

Prompt: Ok, now CC(C)NC(=O)c1c(Cl)cccc1C(=O)Nc1ccc(Oc2ccc(C(F)(F)F)cc2Cl)cc1F
Completion: A (100)
